protocol_details: UV absorption in ethanol
Assay type: physicochemical
reported_metric: λmax

1. CCOC(=O)C(=Cc1ccc(OC[Si](C)(C)C)cc1)C(=O)OCC [Example 3]	λmax = 316 nm,
2. COC(=O)C(=Cc1ccc(OC[Si](C)(C)COc2ccc(C=C(C(=O)OC)C(=O)OC)cc2)cc1)C(=O)OC [Example 9]	λmax = 316 nm,
3. C[Si](C)(C)COc1ccc(C=C(C(N)=O)C(N)=O)cc1 [Example 10]	λmax = 310 nm,
4. CC(C)OC(=O)/C=C/c1ccc(OC[Si](C)(C)C)cc1 [Example 11]	λmax = 310 nm,
